Ref: the supplement of paper PMC10724198

Listed here: items and their measured protein stability index.
tested on: Saccharomyces cerevisiae; test: protein stability index of tFT-peptide fusion (C-terminal peptide) (PSI (0-1 scale)); higher = more stable (slower turnover); conditions: genetic background: wild type; temperature: 30 C;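 also: PSI is a weighted mean of sequencing reads over stability bins, variants kept only with over 10 reads, mCherry proximal and sfGFP distal, peptide attached via GGGS linker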
Measurement name: protein stability index

>  <Chain>
PLLPLPPNPSPP

>  <Measurement name>
protein stability index

>  <Assay result>
0.681

$$$$
>  <Chain>
SRLRFSIAPSIF

>  <Measurement name>
protein stability index

>  <Assay result>
0.685

$$$$
>  <Chain>
SHRRLPPSRFYR

>  <Measurement name>
protein stability index

>  <Assay result>
0.7

$$$$
>  <Chain>
LLALSPLSSYAL

>  <Measurement name>
protein stability index

>  <Assay result>
0.711

$$$$
>  <Chain>
PPPRPPPPPPVP

>  <Measurement name>
protein stability index

>  <Assay result>
0.707

$$$$
>  <Chain>
TLLAPPAPTPAG

>  <Measurement name>
protein stability index

>  <Assay result>
0.684

$$$$
>  <Chain>
SFAKHRNASMGR

>  <Measurement name>
protein stability index

>  <Assay result>
0.691

$$$$
>  <Chain>
LGPFSVPCDPHF

>  <Measurement name>
protein stability index

>  <Assay result>
0.696

$$$$
>  <Chain>
GVGFRVVRTSGR

>  <Measurement name>
protein stability index

>  <Assay result>
0.686

$$$$
>  <Chain>
PLRTRESIGARG

>  <Measurement name>
protein stability index

>  <Assay result>
0.707

$$$$
>  <Chain>
VYSGYVFRKDGI

>  <Measurement name>
protein stability index

>  <Assay result>
0.695

$$$$
>  <Chain>
HTKYISRRRTKR

>  <Measurement name>
protein stability index

>  <Assay result>
0.706

$$$$
>  <Chain>
KYHIKKPSTLEI

>  <Measurement name>
protein stability index

>  <Assay result>
0.683

$$$$
>  <Chain>
RTRMSEGECIST

>  <Measurement name>
protein stability index

>  <Assay result>
0.708

$$$$
>  <Chain>
PASRLHSPSSPP

>  <Measurement name>
protein stability index

>  <Assay result>
0.703

$$$$
>  <Chain>
RSRLPTPRLYPP

>  <Measurement name>
protein stability index

>  <Assay result>
0.708

$$$$
>  <Chain>
GRGFGFDITISS

>  <Measurement name>
protein stability index

>  <Assay result>
0.712

$$$$
>  <Chain>
SLTTPGMSQAYY

>  <Measurement name>
protein stability index

>  <Assay result>
0.703

$$$$
>  <Chain>
SPLEFPLLPSGV

>  <Measurement name>
protein stability index

>  <Assay result>
0.7

$$$$
>  <Chain>
VAFPRSSTLGPY

>  <Measurement name>
protein stability index

>  <Assay result>
0.696

$$$$
>  <Chain>
GGVSRRVNGREA

>  <Measurement name>
protein stability index

>  <Assay result>
0.708

$$$$
>  <Chain>
ALRAGGRPYSVS

>  <Measurement name>
protein stability index

>  <Assay result>
0.716

$$$$
>  <Chain>
WRSIQLVHDKRR

>  <Measurement name>
protein stability index

>  <Assay result>
0.681

$$$$
>  <Chain>
NNIMKPKRKIIK

>  <Measurement name>
protein stability index

>  <Assay result>
0.683

$$$$
>  <Chain>
PLPPPPARLPSP

>  <Measurement name>
protein stability index

>  <Assay result>
0.703

$$$$
>  <Chain>
EGDGQGGGGQGG

>  <Measurement name>
protein stability index

>  <Assay result>
0.695

$$$$
>  <Chain>
PPPPVLPPPLPP

>  <Measurement name>
protein stability index

>  <Assay result>
0.7

$$$$
>  <Chain>
GWLGFVGGVRVQ

>  <Measurement name>
protein stability index

>  <Assay result>
0.685

$$$$
>  <Chain>
RAAVTDPCNPLL

>  <Measurement name>
protein stability index

>  <Assay result>
0.693

$$$$
